Assay: Kpuu determination in the dog (plasma and CSF time course after oral capsule)
Assay type: in vivo, male beagle dog
Settings: male, beagle, Plasma, 20 mg/kg oral capsule
observable: AUC(0-inf) (ng·h/mL)
Record the value in ng·h/mL, omitting the unit from your answer.

input: Return reported AUC(0-inf); argument: "CC(C)(C)CC[C@H](NCc1ccc2c(c1)COCC2)C(=O)O"
output: 23800

----------
Molecular target: Sortilin (Homo sapiens, UniProt Q99523)
Construct: purchased Bio-Techne Ltd 3154-ST-050
Sequence (Q99523 78-755 limits assumed): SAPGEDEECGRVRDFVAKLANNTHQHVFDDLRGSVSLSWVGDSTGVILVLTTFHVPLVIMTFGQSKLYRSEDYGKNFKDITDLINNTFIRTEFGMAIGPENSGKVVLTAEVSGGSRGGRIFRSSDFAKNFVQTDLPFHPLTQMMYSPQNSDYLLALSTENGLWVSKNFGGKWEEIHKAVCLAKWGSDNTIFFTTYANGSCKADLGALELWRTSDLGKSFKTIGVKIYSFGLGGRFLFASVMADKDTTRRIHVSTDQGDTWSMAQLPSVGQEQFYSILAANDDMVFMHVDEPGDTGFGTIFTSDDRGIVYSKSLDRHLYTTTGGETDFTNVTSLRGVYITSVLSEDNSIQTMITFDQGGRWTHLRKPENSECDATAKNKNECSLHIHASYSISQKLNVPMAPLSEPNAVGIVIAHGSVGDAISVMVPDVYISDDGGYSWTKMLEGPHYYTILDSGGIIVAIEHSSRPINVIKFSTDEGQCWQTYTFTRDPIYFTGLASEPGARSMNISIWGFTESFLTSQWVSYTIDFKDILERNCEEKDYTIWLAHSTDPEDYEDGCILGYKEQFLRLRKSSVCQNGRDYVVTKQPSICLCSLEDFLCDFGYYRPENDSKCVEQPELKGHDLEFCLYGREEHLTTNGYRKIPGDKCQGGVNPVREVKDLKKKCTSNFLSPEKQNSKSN
Assay: Creoptix (GCI) binding kinetics, human Sortilin
Conditions: Species Human; Form of Compound Mesylate salt; screened at 1 µM, 25 degrees Celsius
observable: Kd (nM)
Record the value in nM, omitting the unit from your answer.

C[C@@H](N[C@@H](CCC(C)(C)C)C(=O)O)c1ccc2c(c1)CCCC2 ... 40.7
C[C@@H](N[C@@H](CCC(C)(C)C)C(=O)O)c1ccc2c(c1)CCCO2 ... 133
C[C@H](N[C@@H](CCC(C)(C)C)C(=O)O)c1ccc2c(c1)CCC2 ... 35.1
C[C@H](N[C@@H](CCC(C)(C)C)C(=O)O)c1ccc2c(c1)CCOC2 ... 218
C[C@@H](N[C@@H](CCC(C)(C)C)C(=O)O)c1ccc2c(c1)OCCC2 ... 64.9

Next, consider the following molecule.
input: Return reported Kd; argument: "C[C@@H](N[C@@H](CCC(C)(C)C)C(=O)O)c1ccc2c(c1)CCC2"
output: 57.5

Reference source: patent EP4342530A1
